Data origin: the OligoGym collection

Each record here notes measured normalised inhibition (eCFP-eYFP dual reporter).
- targetOrTestSystem: P2rx2 (rat)
- assayProtocol: reporter assay of Huesken 2005
- experimentalContext: siRNA
Oligonucleotides are written 5' to 3', each unit as a sugar letter and its base; * is a phosphorothioate linkage, no mark a phosphodiester; rarer units and linkages stand in square brackets, end groups in braces. Plain capitals give the bases only. d = 2'-deoxy (DNA); r = 2'-OH (RNA)
measurementType: normalised inhibition (eCFP-eYFP dual reporter) (%)

• sense rGrGrUrGrGrUrGrGrArCrArCrArCrUrUrGrGrCdTdT / antisense rGrCrCrArArGrUrGrUrGrUrCrCrArCrCrArCrCdTdG = 52.2
• sense rCrUrCrCrUrUrCrCrUrGrUrGrUrGrArCrUrGrGdTdT / antisense rCrCrArGrUrCrArCrArCrArGrGrArArGrGrArGdCdC = 47.5
• sense rCrArUrCrArUrCrArCrCrArArArGrUrCrArArGdTdT / antisense rCrUrUrGrArCrUrUrUrGrGrUrGrArUrGrArUrGdGdA = 71.5
• sense rGrCrCrArCrCrCrArGrCrCrCrUrCrCrArUrCrAdTdT / antisense rUrGrArUrGrGrArGrGrGrCrUrGrGrGrUrGrGrCdTdG = 60.8
• sense rUrCrGrArUrGrUrUrArUrCrGrUrGrCrArUrGrGdTdT / antisense rCrCrArUrGrCrArCrGrArUrArArCrArUrCrGrAdTdT = 57.4
• sense rGrGrArGrArGrArArCrUrUrCrArCrArGrArArCdTdT / antisense rGrUrUrCrUrGrUrGrArArGrUrUrCrUrCrUrCrCdTdG = 61.7
• sense rGrArArArUrUrCrArGrUrCrUrCrArUrUrCrCrCdTdT / antisense rGrGrGrArArUrGrArGrArCrUrGrArArUrUrUrCdCdC = 39.7
• sense rArGrGrArUrCrGrArGrGrUrUrArCrCrCrCrUrUdTdT / antisense rArArGrGrGrGrUrArArCrCrUrCrGrArUrCrCrUdGdG = 76.8
• sense rGrCrCrCrGrGrUrGrGrArGrGrArUrGrGrArArCdTdT / antisense rGrUrUrCrCrArUrCrCrUrCrCrArCrCrGrGrGrCdAdC = 48.4
• sense rCrArGrUrGrUrArGrUrCrArGrCrArUrCrArUrCdTdT / antisense rGrArUrGrArUrGrCrUrGrArCrUrArCrArCrUrGdCdC = 78.4
• sense rCrGrUrGrCrArGrArArArArGrCrUrArCrCrArGdTdT / antisense rCrUrGrGrUrArGrCrUrUrUrUrCrUrGrCrArCrGdAdT = 80.5
• sense rUrGrGrCrUrGrUrCrCrArGrUrCrUrCrCrUrCrGdTdT / antisense rCrGrArGrGrArGrArCrUrGrGrArCrArGrCrCrAdGdT = 67.4

###

- targetOrTestSystem: CDC34
- assayProtocol: reporter assay of Huesken 2005
- experimentalContext: siRNA
Oligonucleotides are given in HELM: sugar(base)linkage, 5' to 3'; d 2'-deoxyribose, r ribose, m 2'-O-methylribose, p phosphate. ss, as = sense and antisense strand
normalised inhibition (eCFP-eYFP dual reporter) listing for selected substances.
measurementType: normalised inhibition (eCFP-eYFP dual reporter)

* RNA1{r(G)p.r(A)p.r(C)p.r(G)p.r(A)p.r(G)p.r(G)p.r(G)p.r(C)p.r(G)p.r(A)p.r(U)p.r(C)p.r(U)p.r(A)p.r(U)p.r(A)p.r(C)p.r(A)p.d(T)p.d(T)}|RNA2{r(U)p.r(G)p.r(U)p.r(A)p.r(U)p.r(A)p.r(G)p.r(A)p.r(U)p.r(C)p.r(G)p.r(C)p.r(C)p.r(C)p.r(U)p.r(C)p.r(G)p.r(U)p.r(C)p.d(C)p.d(A)}$$$RNA1{StrandType:ss}|RNA2{StrandType:as}$ | 64.3%
* RNA1{r(C)p.r(U)p.r(C)p.r(A)p.r(G)p.r(A)p.r(C)p.r(C)p.r(U)p.r(C)p.r(U)p.r(U)p.r(C)p.r(U)p.r(A)p.r(C)p.r(G)p.r(A)p.r(C)p.d(T)p.d(T)}|RNA2{r(G)p.r(U)p.r(C)p.r(G)p.r(U)p.r(A)p.r(G)p.r(A)p.r(A)p.r(G)p.r(A)p.r(G)p.r(G)p.r(U)p.r(C)p.r(U)p.r(G)p.r(A)p.r(G)p.d(C)p.d(C)}$$$RNA1{StrandType:ss}|RNA2{StrandType:as}$ | 37.2%
* RNA1{r(C)p.r(C)p.r(G)p.r(A)p.r(G)p.r(U)p.r(A)p.r(C)p.r(U)p.r(G)p.r(C)p.r(G)p.r(U)p.r(G)p.r(A)p.r(A)p.r(G)p.r(A)p.r(C)p.d(T)p.d(T)}|RNA2{r(G)p.r(U)p.r(C)p.r(U)p.r(U)p.r(C)p.r(A)p.r(C)p.r(G)p.r(C)p.r(A)p.r(G)p.r(U)p.r(A)p.r(C)p.r(U)p.r(C)p.r(G)p.r(G)p.d(C)p.d(C)}$$$RNA1{StrandType:ss}|RNA2{StrandType:as}$ | 59%
* RNA1{r(G)p.r(G)p.r(G)p.r(G)p.r(C)p.r(U)p.r(G)p.r(C)p.r(A)p.r(G)p.r(G)p.r(A)p.r(A)p.r(G)p.r(A)p.r(G)p.r(C)p.r(C)p.r(G)p.d(T)p.d(T)}|RNA2{r(C)p.r(G)p.r(G)p.r(C)p.r(U)p.r(C)p.r(U)p.r(U)p.r(C)p.r(C)p.r(U)p.r(G)p.r(C)p.r(A)p.r(G)p.r(C)p.r(C)p.r(C)p.r(C)p.d(T)p.d(T)}$$$RNA1{StrandType:ss}|RNA2{StrandType:as}$ | 47.6%
* RNA1{r(A)p.r(C)p.r(C)p.r(C)p.r(C)p.r(A)p.r(C)p.r(G)p.r(C)p.r(A)p.r(G)p.r(A)p.r(A)p.r(C)p.r(G)p.r(U)p.r(C)p.r(A)p.r(G)p.d(T)p.d(T)}|RNA2{r(C)p.r(U)p.r(G)p.r(A)p.r(C)p.r(G)p.r(U)p.r(U)p.r(C)p.r(U)p.r(G)p.r(C)p.r(G)p.r(U)p.r(G)p.r(G)p.r(G)p.r(G)p.r(U)p.d(T)p.d(C)}$$$RNA1{StrandType:ss}|RNA2{StrandType:as}$ | 57.8%

###

- targetOrTestSystem: TMEM63B
- assayProtocol: reporter assay of Huesken 2005
- experimentalContext: siRNA
Oligonucleotides are given in HELM: sugar(base)linkage, 5' to 3'; d 2'-deoxyribose, r ribose, m 2'-O-methylribose, p phosphate. ss, as = sense and antisense strand
Assign yes whenever normalised inhibition (eCFP-eYFP dual reporter) does not fall below 80%; assign no whenever it does.

* RNA1{r(U)p.r(A)p.r(A)p.r(A)p.r(G)p.r(G)p.r(A)p.r(U)p.r(G)p.r(A)p.r(U)p.r(G)p.r(A)p.r(G)p.r(A)p.r(U)p.r(C)p.r(C)p.r(G)p.d(T)p.d(T)}|RNA2{r(C)p.r(G)p.r(G)p.r(A)p.r(U)p.r(C)p.r(U)p.r(C)p.r(A)p.r(U)p.r(C)p.r(A)p.r(U)p.r(C)p.r(C)p.r(U)p.r(U)p.r(U)p.r(A)p.d(T)p.d(C)}$$$RNA1{StrandType:ss}|RNA2{StrandType:as}$ | no
* RNA1{r(G)p.r(G)p.r(G)p.r(U)p.r(U)p.r(C)p.r(C)p.r(U)p.r(A)p.r(G)p.r(C)p.r(U)p.r(C)p.r(C)p.r(C)p.r(A)p.r(C)p.r(G)p.r(U)p.d(T)p.d(T)}|RNA2{r(A)p.r(C)p.r(G)p.r(U)p.r(G)p.r(G)p.r(G)p.r(A)p.r(G)p.r(C)p.r(U)p.r(A)p.r(G)p.r(G)p.r(A)p.r(A)p.r(C)p.r(C)p.r(C)p.d(C)p.d(G)}$$$RNA1{StrandType:ss}|RNA2{StrandType:as}$ | no
* RNA1{r(C)p.r(C)p.r(U)p.r(G)p.r(A)p.r(A)p.r(G)p.r(G)p.r(A)p.r(C)p.r(U)p.r(U)p.r(C)p.r(A)p.r(A)p.r(C)p.r(G)p.r(U)p.r(G)p.d(T)p.d(T)}|RNA2{r(C)p.r(A)p.r(C)p.r(G)p.r(U)p.r(U)p.r(G)p.r(A)p.r(A)p.r(G)p.r(U)p.r(C)p.r(C)p.r(U)p.r(U)p.r(C)p.r(A)p.r(G)p.r(G)p.d(A)p.d(T)}$$$RNA1{StrandType:ss}|RNA2{StrandType:as}$ | yes
* RNA1{r(G)p.r(U)p.r(C)p.r(U)p.r(C)p.r(A)p.r(C)p.r(C)p.r(U)p.r(C)p.r(U)p.r(G)p.r(U)p.r(C)p.r(U)p.r(C)p.r(C)p.r(A)p.r(G)p.d(T)p.d(T)}|RNA2{r(C)p.r(U)p.r(G)p.r(G)p.r(A)p.r(G)p.r(A)p.r(C)p.r(A)p.r(G)p.r(A)p.r(G)p.r(G)p.r(U)p.r(G)p.r(A)p.r(G)p.r(A)p.r(C)p.d(G)p.d(C)}$$$RNA1{StrandType:ss}|RNA2{StrandType:as}$ | yes
* RNA1{r(A)p.r(C)p.r(C)p.r(A)p.r(G)p.r(G)p.r(U)p.r(G)p.r(G)p.r(U)p.r(G)p.r(G)p.r(C)p.r(C)p.r(G)p.r(C)p.r(G)p.r(C)p.r(C)p.d(T)p.d(T)}|RNA2{r(G)p.r(G)p.r(C)p.r(G)p.r(C)p.r(G)p.r(G)p.r(C)p.r(C)p.r(A)p.r(C)p.r(C)p.r(A)p.r(C)p.r(C)p.r(U)p.r(G)p.r(G)p.r(U)p.d(T)p.d(C)}$$$RNA1{StrandType:ss}|RNA2{StrandType:as}$ | no
* RNA1{r(C)p.r(A)p.r(G)p.r(G)p.r(C)p.r(C)p.r(U)p.r(G)p.r(C)p.r(U)p.r(C)p.r(A)p.r(U)p.r(G)p.r(U)p.r(A)p.r(C)p.r(A)p.r(U)p.d(T)p.d(T)}|RNA2{r(A)p.r(U)p.r(G)p.r(U)p.r(A)p.r(C)p.r(A)p.r(U)p.r(G)p.r(A)p.r(G)p.r(C)p.r(A)p.r(G)p.r(G)p.r(C)p.r(C)p.r(U)p.r(G)p.d(G)p.d(G)}$$$RNA1{StrandType:ss}|RNA2{StrandType:as}$ | no
* RNA1{r(C)p.r(U)p.r(C)p.r(A)p.r(C)p.r(G)p.r(G)p.r(A)p.r(C)p.r(A)p.r(C)p.r(A)p.r(G)p.r(A)p.r(C)p.r(U)p.r(U)p.r(C)p.r(C)p.d(T)p.d(T)}|RNA2{r(G)p.r(G)p.r(A)p.r(A)p.r(G)p.r(U)p.r(C)p.r(U)p.r(G)p.r(U)p.r(G)p.r(U)p.r(C)p.r(C)p.r(G)p.r(U)p.r(G)p.r(A)p.r(G)p.d(G)p.d(G)}$$$RNA1{StrandType:ss}|RNA2{StrandType:as}$ | no
* RNA1{r(A)p.r(G)p.r(G)p.r(A)p.r(G)p.r(G)p.r(A)p.r(U)p.r(G)p.r(A)p.r(U)p.r(C)p.r(U)p.r(G)p.r(G)p.r(U)p.r(G)p.r(A)p.r(A)p.d(T)p.d(T)}|RNA2{r(U)p.r(U)p.r(C)p.r(A)p.r(C)p.r(C)p.r(A)p.r(G)p.r(A)p.r(U)p.r(C)p.r(A)p.r(U)p.r(C)p.r(C)p.r(U)p.r(C)p.r(C)p.r(U)p.d(T)p.d(G)}$$$RNA1{StrandType:ss}|RNA2{StrandType:as}$ | no
